biological target: LXRβ (Homo sapiens, UniProt P55055); construct: Co-transfection expression plasmids, comprising full-length LXRα (pCMX-h LXRα[…] or LXRβ (pCMX-hLXRβ)); expressed in transfected cells; host or cells: CV-1 African Green Monkey Kidney Cells; test: Co-transfection assay (LXRE luciferase reporter), LXRβ; assay type: cell-based; conditions: LXRβ co-transfection; relative to high control 1-(2,4-difluorobenzyl)-2-oxo-6-(4-phenoxyphenyl)-4-(trifluoromethyl)-1,2-dihydropyridine-3-carbonitrile; read-out: % Efficacy
Sequence (P55055 whole entry): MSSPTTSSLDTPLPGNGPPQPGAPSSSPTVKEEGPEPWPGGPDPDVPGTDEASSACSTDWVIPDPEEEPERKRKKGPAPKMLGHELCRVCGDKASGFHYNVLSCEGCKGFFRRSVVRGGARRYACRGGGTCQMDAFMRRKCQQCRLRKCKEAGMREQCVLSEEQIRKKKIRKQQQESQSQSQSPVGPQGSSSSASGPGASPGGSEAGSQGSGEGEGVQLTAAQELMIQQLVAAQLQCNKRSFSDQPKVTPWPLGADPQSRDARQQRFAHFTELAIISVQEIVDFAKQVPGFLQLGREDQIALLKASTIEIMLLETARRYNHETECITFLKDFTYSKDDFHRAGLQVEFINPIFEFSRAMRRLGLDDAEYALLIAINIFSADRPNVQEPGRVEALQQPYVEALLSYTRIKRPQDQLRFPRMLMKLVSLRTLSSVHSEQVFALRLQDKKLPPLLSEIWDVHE
Sequence (P19793 whole entry partner): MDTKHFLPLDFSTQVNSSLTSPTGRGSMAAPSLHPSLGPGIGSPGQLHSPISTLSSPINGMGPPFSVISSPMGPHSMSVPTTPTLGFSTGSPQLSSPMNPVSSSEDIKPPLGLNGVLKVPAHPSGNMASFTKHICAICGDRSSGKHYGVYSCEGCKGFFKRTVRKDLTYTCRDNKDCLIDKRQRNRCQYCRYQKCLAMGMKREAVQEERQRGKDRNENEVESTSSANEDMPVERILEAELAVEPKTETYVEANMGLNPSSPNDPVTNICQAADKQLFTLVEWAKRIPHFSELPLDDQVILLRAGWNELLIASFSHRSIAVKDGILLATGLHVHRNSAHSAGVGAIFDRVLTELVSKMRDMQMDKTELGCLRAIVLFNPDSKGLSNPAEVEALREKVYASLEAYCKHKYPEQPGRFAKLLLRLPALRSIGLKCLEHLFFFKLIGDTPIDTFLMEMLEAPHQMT
Rule: Emax of 60% or more gives fulfilled; anything lower gives not fulfilled.

Determine whether this compound has Emax no lower than 60%: Cc1nc(-c2cc(-c3cccc(S(C)(=O)=O)c3)ccc2-n2cc(C(F)(F)F)nc2C)c(-c2ccccc2OC(F)F)o1 not fulfilled

Is Emax at least 60%? Consider Cc1nc(-c2cc(-c3cccc(S(C)(=O)=O)c3)ccc2-n2cc(C(F)(F)F)nc2C)c(-c2cc(Cl)ccn2)o1 fulfilled

API: above_or_equal(metric=Emax, cutoff=60%) for item Cc1nc(C(F)(F)F)cn1-c1ccc(-c2cc(F)c(CO)c(S(C)(=O)=O)c2)cc1-n1nncc1Cc1cccc(Cl)c1 fulfilled

Form field: Emax at least 60%? Entry: Cc1nc(-c2cc(-c3cc(F)c(CO)c(S(C)(=O)=O)c3)ccc2-n2cc(C(F)(F)F)nc2C)c(-c2ccc(F)cc2F)o1 not fulfilled

Item Cc1nc(-c2cc(-c3cc(F)c(CO)c(S(C)(=O)=O)c3)ccc2-n2cc(C(F)(F)F)nc2C)c(-c2ccc(OC3CCCCC3)nc2)o1 with Emax of 60% or above? not fulfilled

Is Emax for Cc1nc(-c2cc(-c3cccc(S(C)(=O)=O)c3)ccc2-n2cc(C(F)(F)F)nc2C)c(-c2ccc(Cl)c(OC(F)F)c2)o1 at or above 60%? fulfilled

Exam item: decide whether the reported Emax for Cc1cc(-c2oc(C)nc2-c2cc(-c3cccc(S(C)(=O)=O)c3)ccc2-n2cc(Cl)nc2C)cc(Cl)n1 is at least 60%. not fulfilled

Please check the record Cc1ccc(-c2oc(C)nc2-c2cc(-c3cccc(S(C)(=O)=O)c3)ccc2-n2cc(C(F)(F)F)nc2C)c(Cl)n1 and state if its Emax is at or above 60%. fulfilled

Has Cc1nc(C(F)(F)F)cn1-c1c(F)cc(-c2cc(F)c(CO)c(S(C)(=O)=O)c2)cc1-n1nncc1-c1ccc(Cl)cc1Cl a recorded Emax greater than or equal to 60%? fulfilled

Hi team, for Cc1nc(-c2cc(-c3cccc(S(C)(=O)=O)c3)ccc2-n2cc(C(F)(F)F)nc2C)c(-c2cccnc2C2CC2)o1 , is the recorded Emax at or above 60%? fulfilled

Emax >= 60% for Cc1nc(C(F)(F)F)cn1-c1ccc(-c2cc(F)c(CO)c(S(C)(=O)=O)c2)cc1-c1nc(C2CC2)cn1-c1ccc2c(c1)OC(F)(F)O2 ? fulfilled

Could you tell me if the measured Emax of CNS(=O)(=O)c1cccc(-c2cc(F)c(-n3cc(C(F)(F)F)nc3C)c(-n3nncc3-c3ccc(Cl)cc3)c2)c1 reaches 60% or more? fulfilled

State whether the measured Emax reaches 60%, counting equality as reaching it, for Cc1nc(C(F)(F)F)cn1-c1ccc(-c2cccc(S(C)(=O)=O)c2)cc1-c1oc(CC(=O)O)nc1-c1ccc(OC(F)(F)F)cc1 fulfilled

Could you please find out whether Cc1nc(C(F)(F)F)cn1-c1ccc(-c2cc(Cl)c(CO)c(S(C)(=O)=O)c2)cc1-n1nncc1-c1ccc2c(c1)OC(F)(F)O2 has Emax that meets 60% or exceeds it? fulfilled

State whether the measured Emax reaches 60%, counting equality as reaching it, for Cc1nc(C(F)(F)F)cn1-c1ccc(-c2cc(F)c(CO)c(S(C)(=O)=O)c2)cc1-c1ocnc1Cc1ccc(Cl)cc1 fulfilled

Please check the record Cc1nc(-c2cc(-c3cccc(S(C)(=O)=O)c3)ccc2-n2cc(C(F)(F)F)nc2C)c(-c2cc(Cl)cc(Cl)c2)o1 and state if its Emax is at or above 60%. not fulfilled

Emax >= 60% for Cc1nc(C(F)(F)F)cn1-c1ccc(-c2cc(F)c(CO)c(S(C)(=O)=O)c2)c(Cl)c1-n1nncc1-c1ccc(Cl)cc1 ? not fulfilled

Test whether the compound Cc1nc(C(F)(F)F)cn1-c1c(F)cc(-c2cccc(S(C)(=O)=O)c2)cc1-n1nncc1-c1ccc(OC(F)(F)F)cc1 records Emax of 60% or higher. fulfilled

Could you please find out whether Cc1nc(-c2cc(-c3cc(F)c(CO)c(S(C)(=O)=O)c3)ccc2-n2cc(C(F)(F)F)nc2C)c(-c2ccc3c(c2)OC(F)(F)O3)o1 has Emax that meets 60% or exceeds it? fulfilled

API: above_or_equal(metric=Emax, cutoff=60%) for item Cc1nc(-c2cc(-c3cccc([S+](C)[O-])c3)ccc2-n2cc(C(F)(F)F)nc2C)c(-c2ccc(OC(F)(F)F)cc2)o1 (stereo not shown) fulfilled

Does Emax meet or surpass 60% for Cc1nc(C(F)(F)F)cn1-c1ccc(-c2cc(F)c(CO)c(S(C)(=O)=O)c2)cc1-n1nncc1-c1ccc(OC(F)(F)F)c(Cl)c1 ? fulfilled

Identify whether the reported Emax of the following compound is 60% or greater: Cc1nc(C(F)(F)F)cn1-c1ccc(-c2cc(F)c(CO)c(S(C)(=O)=O)c2)cc1-c1nc(C2CC2)cn1-c1ccc(Cl)cc1 not fulfilled

Evaluate Cc1nc(-c2ccccc2C(F)(F)F)c(-c2cc(-c3cccc(S(C)(=O)=O)c3)ccc2-n2cc(C(F)(F)F)nc2C)o1 : Emax at minimum 60%? not fulfilled

Is it the case that CS(=O)(=O)c1cccc(-c2ccc(-n3cc(C(F)(F)F)nc3C(F)F)c(-n3nncc3-c3ccc(Cl)cc3)c2)c1 has Emax reaching or exceeding 60%? fulfilled

###

biological target: LXRβ (Homo sapiens, UniProt P55055); construct: Co-transfection expression plasmids, comprising full-length LXRα (pCMX-h LXRα[…] or LXRβ (pCMX-hLXRβ)); expressed in transfected cells; host or cells: CV-1 African Green Monkey Kidney Cells; experiment: Co-transfection assay (LXRE luciferase reporter), LXRβ; assay type: cell-based; settings: LXRβ co-transfection; relative to high control 1-(2,4-difluorobenzyl)-2-oxo-6-(4-phenoxyphenyl)-4-(trifluoromethyl)-1,2-dihydropyridine-3-carbonitrile; read-out: % Efficacy
endpointLabel: Emax (%)
Express it in %; write the number only.

Could you share what Emax was measured for Cc1nc(-c2cc(-c3cc(F)c(CO)c(S(C)(=O)=O)c3)ccc2-n2cc(C(F)(F)F)nc2C)c(-c2ccc(OC(CF)CF)c(F)c2)o1 [Example 407] , tested on LXRβ (Homo sapiens, UniProt P55055)? 70

Give Emax (LXRβ (Homo sapiens, UniProt P55055)) of the following compound: COc1ccc(-c2oc(C)nc2-c2cc(-c3cc(F)c(CO)c(S(C)(=O)=O)c3)ccc2-n2cc(C(F)(F)F)nc2C)cn1 [Example 570] 93

Give recorded Emax with LXRβ (Homo sapiens, UniProt P55055) for the following compound: Cc1nc(C(F)(F)F)cn1-c1ccc(-c2cccc(S(C)(=O)=O)c2)cc1-n1nncc1-c1ccc(F)c(OC(F)(F)F)c1 [Example 46] 62

What is its Emax for LXRβ (Homo sapiens, UniProt P55055)? Entry: Cc1nc(C(F)(F)F)cn1-c1cc(F)c(-c2cccc(S(C)(=O)=O)c2)cc1-n1nncc1-c1ccc(Cl)cc1Cl [Example 101] 73

Report Emax for Cc1nc(C(F)(F)F)cn1-c1ccc(-c2cc(F)c(CO)c(S(C)(=O)=O)c2)cc1-n1nncc1C(=O)c1ccc(C(F)(F)F)cc1 [Example 141] tested on LXRβ (Homo sapiens, UniProt P55055). 106

Which measured Emax belongs to Cc1nc(C(C)(F)F)cn1-c1ccc(-c2ccc(CO)c(S(C)(=O)=O)c2)cc1-n1nncc1-c1ccc(OC(F)(F)F)cc1 [Example 178] , tested on LXRβ (Homo sapiens, UniProt P55055)? 89

Value wanted: Emax (LXRβ (Homo sapiens, UniProt P55055)) of entry Cc1nc(C(F)(F)F)cn1-c1ccc(-c2cccc(S(C)(=O)=O)c2)cc1-n1nncc1Cc1ccc(Cl)c(Cl)c1 [Example 115] 79

Find the measured Emax: item Cc1nc(C(F)(F)F)cn1-c1ccc(-c2cc(F)c(CO)c(S(C)(=O)=O)c2)cc1-c1cnnn1-c1ccc(OC(F)(F)F)cc1 [Example 244] , target or system LXRβ (Homo sapiens, UniProt P55055). 110

API: value(readout=Emax, system=LXRβ (Homo sapiens, UniProt P55055)) for record Cc1nc(-c2cc(-c3cccc(S(C)(=O)=O)c3)ccc2-n2cc(C(F)(F)F)nc2C)c(-c2cccc(OC(F)(F)C(F)(F)F)c2)o1 [Example 574] 63

I'm curious: which Emax was measured for Cc1nc(C(F)(F)F)cn1-c1ccc(-c2cccc(S(C)(=O)=O)c2)cc1-n1nncc1-c1ccc2[nH]ccc2c1 [Example 45] tested on LXRβ (Homo sapiens, UniProt P55055)? 53

// lookup Emax | system=LXRβ (Homo sapiens, UniProt P55055) | key= Cc1nc(C(F)(F)F)cn1-c1ccc(-c2cccc(S(C)(=O)=O)c2)cc1-n1nncc1C(=O)c1ccc(C(F)(F)F)cc1 [Example 138] 99

What value of Emax on LXRβ (Homo sapiens, UniProt P55055) does Cc1nc(-c2cc(-c3cccc(S(C)(=O)=O)c3)ccc2-n2cc(C(F)(F)F)nc2C)c(-c2ccc(OC(F)F)c(OC3CC3)c2)o1 [Example 386] have? 64

Entry Cc1nc(C(F)(F)F)cn1-c1ccc(-c2ccc(CNS(C)(=O)=O)c(S(C)(=O)=O)c2)cc1-n1nncc1-c1ccc(OC(F)(F)F)cc1 [Example 87] , system LXRβ (Homo sapiens, UniProt P55055): what Emax was measured? 89

Lab note: need Emax for Cc1nc(-c2ccc3c(c2)OC(F)(F)O3)c(-c2cc(-c3cc(F)c(CO)c(S(C)(=O)=O)c3)ccc2-n2cc(C(F)(F)F)nc2C)o1 [Example 617] on LXRβ (Homo sapiens, UniProt P55055), anyone have it? 84

From: patent US9834542B2
